- Test system: Plasmodium berghei
- protocol: Screen against P. berghei liver stage (PbLuc), transformed with Luciferase, at 10uM
- Format: functional, HepG2
- condition.description: tested at 10 uM
About 8,600 (12%) of roughly 69,000 compounds showed an effect of 50% or more. The list comes from a sample in which strong results are over-represented; it also holds close analogues and randomly drawn compounds.
Classification field: class 1 = INHIBITION at or over 60%; class 0 = INHIBITION under 60%.

[[record]]
compound = "O=C(NC1CC1)C1CCN(c2cccc(C(F)(F)F)n2)CC1"
target_or_system = "Plasmodium berghei"
group_label = "class 1"

[[record]]
compound = "CCCc1nc(CN(CC)Cc2ccc(O)c(C(=O)O)c2)no1"
target_or_system = "Plasmodium berghei"
group_label = "class 0"

[[record]]
compound = "Cc1c(C2CC(=O)Nc3c2cnn3C(C)(C)C)cnn1C (stereo unspecified)"
target_or_system = "Plasmodium berghei"
group_label = "class 0"

[[record]]
compound = "COc1cc(C)c(-c2ccc(F)c3c2OC(CN)C3)cc1C (stereo unspecified)"
target_or_system = "Plasmodium berghei"
group_label = "class 0"

[[record]]
compound = "Fc1ccc(-c2nc(CN3CCCC3Cn3cncn3)co2)cc1 (stereo unspecified)"
target_or_system = "Plasmodium berghei"
group_label = "class 0"

[[record]]
compound = "O=C(NC1CC1)C1CCCN(c2cccc(C(F)(F)F)n2)C1 (stereo unspecified)"
target_or_system = "Plasmodium berghei"
group_label = "class 0"

[[record]]
compound = "COCc1nc(C(=O)NS(=O)(=O)c2cc(Br)ccc2C)cs1"
target_or_system = "Plasmodium berghei"
group_label = "class 0"

[[record]]
compound = "CCOc1ccc(Cl)c(C(=O)N2CCN(CC(C)(C)O)CC2)n1"
target_or_system = "Plasmodium berghei"
group_label = "class 0"

[[record]]
compound = "Cc1cnn(CC2CCCN2Cc2coc(-c3ccccc3)n2)c1 (stereo unspecified)"
target_or_system = "Plasmodium berghei"
group_label = "class 0"

[[record]]
compound = "Cc1cnn(CC2CCCN2Cc2coc(-c3cccc(F)c3)n2)c1 (stereo unspecified)"
target_or_system = "Plasmodium berghei"
group_label = "class 1"

